B1: Hairpin Ribozyme (parent)
chain: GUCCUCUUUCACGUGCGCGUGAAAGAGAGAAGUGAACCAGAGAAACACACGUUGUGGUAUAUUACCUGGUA

Variants of: B1
Assay: self-cleavage, relative activity (ratio to wild type); higher = more cleavage; co-transcriptional
Classification by self-cleavage | ranges: bottom range: < 0.2; center range: ≥ 0.2 and < 0.4; top range: ≥ 0.4

Residue Codes: GUCCUCUGUCACGUGCGCGUGAAAGAGAGAAGUGAACCAGAGAAACACACGUCGUGGUAUAUUACCUGGUA [U8G U53C]
Assigned Label: top range

Residue Codes: GUCCUCUUUCACGUGCGCCUGAAAGAGAGAAGUGAACCAGAGAAACACACGUUGUGGUAUAUUAGCUGGUA [G19C C65G]
Assigned Label: center range

Residue Codes: GUGCUCUUUCACGUGCGCGUGAAAGAGAGAAGUGAACCAGAGAAACGCACGUUGUGGUAUAUUACCUGGUA [C3G A47G]
Assigned Label: bottom range

Residue Codes: GUCCUAUUUCACGUGCGCGUGAAAGAGAGAAGUGAACCAGAGAAACACACGUUGUGGUAUAUUACCGGGUA [C6A U67G]
Assigned Label: bottom range

Residue Codes: GUCCUGUUUCACGUGCGCGUGAAAGAGAGAAGUGAACCAGAGAAACACACGUUGAGGUAUAUUACCUGGUA [C6G U55A]
Assigned Label: bottom range

Residue Codes: GUCCACUUUCACGUUCGCGUGAAAGAGAGAAGUGAACCAGAGAAACACACGUUGUGGUAUAUUACCUGGUA [U5A G15U]
Assigned Label: top range

Residue Codes: GUCCUCUUUCACGUGCGCGUGAAAGAGAGAUGUGAACCAGAGAAACAAACGUUGUGGUAUAUUACCUGGUA [A31U C48A]
Assigned Label: bottom range

Residue Codes: GUCAUCUUUCACGUGCGCGUGAAAGAGAGAAGUGAACCAGAGAAACACACGUUGUGGUAUAUUACCUGGUG [C4A A71G]
Assigned Label: center range

Residue Codes: GUCCUCUUUCACGUGCGGGUGGAAGAGAGAAGUGAACCAGAGAAACACACGUUGUGGUAUAUUACCUGGUA [C18G A22G]
Assigned Label: top range

Residue Codes: GUCCUCUUUCACGUACGCGUGAAAGAGAGAUGUGAACCAGAGAAACACACGUUGUGGUAUAUUACCUGGUA [G15A A31U]
Assigned Label: bottom range

Residue Codes: GUCCCCUUUCACGUGCGCGUGAAAGAGAGAAGUGAACCAGAGACACACACGUUGUGGUAUAUUACCUGGUA [U5C A44C]
Assigned Label: bottom range

Residue Codes: GUCCUCUUUCACGUGCUCGUGAAAGAGAGAAGUGAACCAGAGAAACACACAUUGUGGUAUAUUACCUGGUA [G17U G51A]
Assigned Label: top range

Residue Codes: GUCCUCUUUCACGUGCGCGUGAAAGAGAGAAGUGAACCAGAGAAAAACACGUUGUUGUAUAUUACCUGGUA [C46A G56U]
Assigned Label: bottom range

Residue Codes: GUCCUCUUUCACGUGCGCGUGAAAGAGAGAAGUGAACCGGAGAAACACACGUUGUGGUAUUUUACCUGGUA [A39G A61U]
Assigned Label: bottom range

Residue Codes: GUCCCGUUUCACGUGCGCGUGAAAGAGAGAAGUGAACCAGAGAAACACACGUUGUGGUAUAUUACCUGGUA [U5C C6G]
Assigned Label: bottom range

Residue Codes: GUCCUCUUUCACGUGCGCGUGAAAGAGAGAAGGGAACCAGAGAAACACACGUUGUGGUAUAUUACCUGUUA [U33G G69U]
Assigned Label: bottom range

Residue Codes: GUCCUCUUUCAUGUGCGCGGGAAAGAGAGAAGUGAACCAGAGAAACACACGUUGUGGUAUAUUACCUGGUA [C12U U20G]
Assigned Label: top range

Residue Codes: GUCCUCUUUCACGUGCGCGUGAAAGAGAGAAGUGAACCAGAGAAACUCACGUUGUGGUAUAUUACCUUGUA [A47U G68U]
Assigned Label: center range

Residue Codes: GUCCUCUUUCGCGUGCGCGUGAAAGAGAGAAGUGAACCAGAGAAGCACACGUUGUGGUAUAUUACCUGGUA [A11G A45G]
Assigned Label: center range

Residue Codes: GUCCUCUUUCACGUGCGCGUGAAACAGAGAAGUGAACCAGAGAAACACACGUAGUGGUAUAUUACCUGGUA [G25C U53A]
Assigned Label: top range

Residue Codes: GUCCUCUUUCACGUGCGCGUGAAAGAGAGAAGUGAACCAGUGAAACACACGUUGUUGUAUAUUACCUGGUA [A41U G56U]
Assigned Label: bottom range

Residue Codes: GUCCUCUUUCACGUGCGCGUGAAAGACAGAAGUGAACCAGAGAAACACACGUUGUGGUAUGUUACCUGGUA [G27C A61G]
Assigned Label: center range

Residue Codes: GUCCUCUUUCACGUGCGCGUGAAAGAGAGAAGUGAAUCAGAGAAACACACGUUGUGGUAUAUCACCUGGUA [C37U U63C]
Assigned Label: bottom range

Residue Codes: GUCCUCUUUCACCUGCGCGUGAAAGAGAGAAGUGAACUAGAGAAACACACGUUGUGGUAUAUUACCUGGUA [G13C C38U]
Assigned Label: center range

Residue Codes: GUCCUCUUGCACGUGUGCGUGAAAGAGAGAAGUGAACCAGAGAAACACACGUUGUGGUAUAUUACCUGGUA [U9G C16U]
Assigned Label: top range

Residue Codes: GUCCUCGUUCACGUGCGCGUGAAAGAGAGAAGUGAACCAGGGAAACACACGUUGUGGUAUAUUACCUGGUA [U7G A41G]
Assigned Label: top range

Residue Codes: GUCCUCUUUCACGUGCGCGAGAAAGAGAGAAGUGAACCAGCGAAACACACGUUGUGGUAUAUUACCUGGUA [U20A A41C]
Assigned Label: top range

Residue Codes: GUCCUCUUUCACGUGCGCAUGAAAGAGAGAAGUGAACCAGAGAAACACACGUUGUGGUAUAUUACCUGGUG [G19A A71G]
Assigned Label: top range

Residue Codes: GUCCUCUUUCACGUGCGCGUGAAAGAGAGAAGUGAACCAGAGAAACACACGUCGUGGUAUAUUACCGGGUA [U53C U67G]
Assigned Label: top range

Residue Codes: GUCCUCUUUCACGUGCGUGUGAAAGAGAGAAGUGAACCAGAGAAACAUACGUUGUGGUAUAUUACCUGGUA [C18U C48U]
Assigned Label: bottom range

Residue Codes: GUCCUCUUUCACGUGCGCGCGAAAGAGAGAAGUGAACCAUAGAAACACACGUUGUGGUAUAUUACCUGGUA [U20C G40U]
Assigned Label: bottom range

Residue Codes: GUCCUCUUUCACGUUCGCGUGAAAGACAGAAGUGAACCAGAGAAACACACGUUGUGGUAUAUUACCUGGUA [G15U G27C]
Assigned Label: center range

Residue Codes: GUCCUCUUUCACGUGCGCGUGAAAGAGAGAAGUGAACCAGAGAAAUACACGUUGUGGUAUAUUACUUGGUA [C46U C66U]
Assigned Label: bottom range

Residue Codes: GCCCUCUUUCACGUGCGCGUGAAAGAGAGAAGUGAACCAUAGAAACACACGUUGUGGUAUAUUACCUGGUA [U2C G40U]
Assigned Label: bottom range

Residue Codes: GUCCUCUUUCACGUGCGCGUGAUAGAGAGAAGUGGACCAGAGAAACACACGUUGUGGUAUAUUACCUGGUA [A23U A35G]
Assigned Label: top range

Residue Codes: GUCCUCUUUCACCUGCGCGUGAAAGAGAGAAGUGAACCAGAGAAACGCACGUUGUGGUAUAUUACCUGGUA [G13C A47G]
Assigned Label: center range

Residue Codes: GUCCCCUUUCACGUGCGCGUGAAAGAGAGAAGUGAACCAGAGAAACCCACGUUGUGGUAUAUUACCUGGUA [U5C A47C]
Assigned Label: center range

Residue Codes: GUCCUCUUUCACGUGCGCGUGAAAGAGAGAAGUGAACAAGAGAAACGCACGUUGUGGUAUAUUACCUGGUA [C38A A47G]
Assigned Label: bottom range

Residue Codes: GUCCUCUUUCACGAGCGCGUGAAAGAGAGAAUUGAACCAGAGAAACACACGUUGUGGUAUAUUACCUGGUA [U14A G32U]
Assigned Label: bottom range

Residue Codes: GUCCUCUUUCACGUGCGCGUGAACGAGAGAAGUGAACCAGAGAAACACACGUUGUGGUAUAUUACCAGGUA [A24C U67A]
Assigned Label: bottom range

Residue Codes: GUCUUCUUUCAUGUGCGCGUGAAAGAGAGAAGUGAACCAGAGAAACACACGUUGUGGUAUAUUACCUGGUA [C4U C12U]
Assigned Label: center range

Residue Codes: GUCCGCUUUCACGUGCGCGUGAAAGAGAGAAGUGAACCAGUGAAACACACGUUGUGGUAUAUUACCUGGUA [U5G A41U]
Assigned Label: top range

Residue Codes: GACCUCUUUCACGUGCGCGUGAAAGAGCGAAGUGAACCAGAGAAACACACGUUGUGGUAUAUUACCUGGUA [U2A A28C]
Assigned Label: center range
